Test system: DU-145 prostate
experiment: NCI tumour cell line growth inhibition, 48 h
Provide the reported GI50 of each item.

compound	GI50
C#CCOc1cccc(-c2ncc3cc(NC(=O)CCl)ccc3n2)c1	1.79 µM
Cn1c(I)c(C#CCO[Si](C)(C)C(C)(C)C)c(=O)[nH]c1=O	15.3 µM
CCN1CCN(C(=O)[C@@]2(C)CC[C@]3(C)CC[C@]4(C)C(=CC(=O)[C@@H]5[C@@]6(C)CC[C@H](OC7C[C@@H](O)[C@@H](O)C(C)O7)C(C)(C)[C@@H]6CC[C@]54C)[C@@H]3C2)CC1 (stereo partly drawn)	8.71 µM
CSC1=Nc2c(c(C)c(C)n2COC(CO)CO)C2=NC(=O)C(C)N12 (stereo not drawn)	> 100 µM

# return GI50 for each item in the list
1. COc1cc(C(=O)N2CCN(C=O)C2=S)cc(OC)c1OC
2. c1ccc(-c2nnc(-c3ccccn3)s2)nc1
3. Cc1cc(Nc2ccc(NC(=O)c3ccc(Nc4ccnc5ccccc45)cc3)cc2)nc(N)n1

["19.6 µM", "> 100 µM", "2.03 µM"]

Return the recorded GI50 value; entry: `COc1cc(Nc2ncccc2C(=O)NCc2cn(Cc3cccc(Oc4ccccc4)c3)nn2)cc(OC)c1` 10.5 µM

====

Tested on: HCT-116 colon
experiment: NCI tumour cell line growth inhibition, 48 h
Provide the reported GI50 of each item.

# return GI50 for each item in the list
1. Nc1ccc([N+](=O)[O-])cc1N=C/C=C/c1ccccc1
2. Cn1c(I)c(C#CCO[Si](C)(C)C(C)(C)C)c(=O)[nH]c1=O
3. NC(=O)/C=C/C(=O)c1c(Cl)cccc1Cl

1: 7.86 µM; 2: 14.3 µM; 3: 0.476 µM

====

System: M14 melanoma
experiment: NCI tumour cell line growth inhibition, 48 h
Provide the reported log10(TGI) of each item.
Please interpret these as log10 of TGI where TGI is in µM.

Observe how each entry below is paired with its result.
compound	experimentalSystem	resultType	observedValue
C/C=C(\C)C(=O)O[C@H]1C=CC(=O)O[C@H]1CCC(=O)[C@H](C)O	M14 melanoma	log10(TGI)	1.52
COc1cc(C(=O)N2CCN(C=O)C2=S)cc(OC)c1OC	M14 melanoma	log10(TGI)	1.62
O=C(Nc1ccc(Br)cc1F)c1cc(F)ccc1O	M14 melanoma	log10(TGI)	0.61
Nc1nn2cc(F)cnc2c1C(=O)Nc1cncc(F)c1N1CCC(C(=O)N2CCN(C3COC3)CC2)CC1	M14 melanoma	log10(TGI)	0.73
O=C1C=CC(=O)c2c1ccc1c3ccccc3n(CCCCCn3c4ccccc4c4ccc5c(c43)C(=O)C=CC5=O)c21	M14 melanoma	log10(TGI)	1.59

# return log10(TGI) for each item in the list
1. CCN1CCN(C(=O)[C@@]2(C)CC[C@]3(C)CC[C@]4(C)C(=CC(=O)[C@@H]5[C@@]6(C)CC[C@H](OC7C[C@@H](O)[C@@H](O)C(C)O7)C(C)(C)[C@@H]6CC[C@]54C)[C@@H]3C2)CC1 (some centres not stated)
2. CN1C(=O)c2ccccc2OC12C=Cc1c(ccc3ccccc13)O2 (configuration not stated)
3. c1ccc(N=C(N2CCCC2)N(CCN2CCCC2)c2ccccc2)cc1
4. CCOC(=O)C(C#N)C1=CC(=O)C(=O)c2ccc(OC)cc21 (configuration not stated)

0.34
1.23
1.43
1.47
